- target or test system: Human immunodeficiency virus type 1 integrase (Human immunodeficiency virus 1, UniProt Q7ZJM1)
- Sequence (Q7ZJM1 whole entry): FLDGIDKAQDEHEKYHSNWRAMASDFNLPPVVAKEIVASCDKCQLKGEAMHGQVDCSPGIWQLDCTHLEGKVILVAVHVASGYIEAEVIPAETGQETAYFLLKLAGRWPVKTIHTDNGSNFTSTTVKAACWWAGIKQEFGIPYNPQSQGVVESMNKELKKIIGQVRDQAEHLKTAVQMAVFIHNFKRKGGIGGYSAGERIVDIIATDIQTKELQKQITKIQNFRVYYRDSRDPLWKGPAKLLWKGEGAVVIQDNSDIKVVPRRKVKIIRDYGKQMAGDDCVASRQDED
Output yes for records whose IC50 is lower than 1 µM, no for records at or above 1 µM.

1) CC(=O)Nc1ccc2c(c1)C(=O)N(O)C(=O)C2; yes
2) O=C(Nc1ccc2c(c1)C(=O)N(O)C(=O)C2)c1ccc(F)cc1; yes
3) O=C(Nc1ccc2c(c1)C(=O)N(O)C(=O)C2)c1ccccc1; no
4) O=C1Cc2ccc(-c3ccc(F)cc3)cc2C(=O)N1O; no
5) O=C1Cc2ccccc2C(=O)N1O; no
6) O=C(Cc1ccccc1)Nc1ccc2c(c1)C(=O)N(O)C(=O)C2; yes
7) O=C1Cc2ccc(I)cc2C(=O)N1O; no
8) O=C1Cc2ccc(-c3ccc(O)c(O)c3)cc2C(=O)N1O; yes
9) O=C1Cc2ccc(-c3ccccc3)cc2C(=O)N1O; no
10) CCCCC(=O)Nc1ccc2c(c1)C(=O)N(O)C(=O)C2; no

Task item: Lab note: confirm whether the reported IC50 for this compound is below 1 µM, equality not counting. compound: O=C1Cc2ccc(O)cc2C(=O)N1O
Reply: no

Task item: Lab note: confirm whether the reported IC50 for this compound is below 1 µM, equality not counting. compound: O=C(Cc1ccc(F)cc1)Nc1ccc2c(c1)C(=O)N(O)C(=O)C2
Reply: yes
